test system: Tov112D; assay: Primary qHTS to identify gynecologic anti-cancer compounds using libraries of approved drugs and bioactive compounds (AID 1345084); details: Gynecologic cancer cell panel viability, ATPlite luminescence, 48 h; series mostly up to 57.5 µM; also: nearly all actives have a fitted effect of over 55% in size
Results filed as inconclusive are left out. Active and inactive are the calls of the source. Calls follow the shape of the dose curve; as a rule, active = well fitted cell-killing curve with a large enough effect; inconclusive = small, poorly fitted or top-dose-only effect, or effect the other way; inactive = flat fitted curve, though single readings scatter.
One label from this list, please: active, inactive

>  <compound>
C/C=C/[C@@H]1C=C[C@@H]2C[C@H](C)CC[C@H]2[C@]1(C)/C(O)=C1/C(=O)[C@@H](CO)N(C)C1=O

>  <system_under_test>
Tov112D

>  <cat>
inactive

$$$$

// query Hello, I am checking results. What call was entered for `CC#CC(=O)Nc1ccc2ncnc(Nc3cccc(Br)c3)c2c1` ?
// result active

// query Hello, I am checking results. What call was entered for `COc1ccc2[nH]c(=O)c3c(c2c1)OC(C)(C)C=C3` ?
// result inactive

// query Hello, I am checking results. What call was entered for C=C1CCC2C(C)(C)CCCC2(C)C1CC/C(C)=C\CO (stereo unspecified) ?
// result inactive

// query Hello, I am checking results. What call was entered for `C=CC(=O)N1CCN(C(=O)CNc2cc(-c3ccccc3Cl)c(Cl)cc2OC)CC1` ?
// result inactive

// query Hello, I am checking results. What call was entered for `CC(=O)O[C@@H]1CC[C@@]2(C)[C@H](CC[C@@H]3[C@@H]2C[C@H](OC(C)=O)[C@]2(C)[C@@H](C(C)=O)CC[C@@H]32)C1` ?
// result inactive

// query Hello, I am checking results. What call was entered for C=C1C(=O)O[C@H]2CC(=C)[C@H]3CC[C@@](C)(O)[C@@H]3CC12 (stereo partly specified) ?
// result inactive

// query Hello, I am checking results. What call was entered for `C=C(C(=O)OC)[C@@H]1CC=C2C=CC(=O)[C@H](C)[C@@]2(C)C1` ?
// result inactive

====

test system: Tov-21-G; assay: Primary qHTS to identify gynecologic anti-cancer compounds using libraries of approved drugs and bioactive compounds (AID 1345084); settings: Gynecologic cancer cell panel viability, ATPlite luminescence, 48 h; series mostly up to 57.5 µM; also: nearly all actives have a fitted effect of over 55% in size; also: potency is read from the fitted curve at half-maximal effect
Inconclusive results are not listed. Active and inactive are the calls of the source. The call rests on the fitted dose curve; in most records, active means well fitted cell-killing curve with a large enough effect; inconclusive means small, poorly fitted or top-dose-only effect, or effect the other way; inactive means flat fitted curve, though single readings scatter.
property: Potency

Some compounds with recorded Potency:
>  <compound_structure>
O=C(NC1(c2ccccc2)CC1)c1c(CN2CCC(N3CCCCC3)CC2)c(-c2cccc(C(F)(F)F)c2)nc2cc(Br)ccc12

>  <Potency>
inactive

$$$$
>  <compound_structure>
Cc1ccnn1-c1ccc(C(=O)N2CCN(S(=O)(=O)c3ccc(Cl)c(C(F)(F)F)c3)CC2)cc1

>  <Potency>
inactive

$$$$
>  <compound_structure>
C=CC(=O)N1CCCN(c2cc(NCCC(=O)O)nc(-c3ccccn3)n2)CC1

>  <Potency>
inactive

$$$$
>  <compound_structure>
C=CC(=O)Nc1ccc2ncnc(Nc3cccc(Br)c3)c2c1

>  <Potency>
10 µM (active)

$$$$
>  <compound_structure>
Cc1ccc(O)cc1Nc1ccnc(Nc2cccc(C(N)=O)c2)n1

>  <Potency>
10 µM (active)

$$$$

Quick request: Potency for each listed item, please.
1. CC(C)(O)C(=O)N1CCN(c2ccc(C(F)(F)F)c(C3=C(c4c[nH]c5ccccc45)C(=O)NC3=O)c2)CC1
2. Clc1cccc(COc2cncc(N3CCNCC3)n2)c1

// result
inactive
inactive

Quick request: Potency for each listed item, please.
1. C[C@@H](NC(=O)c1ccc(C#Cc2cccc(F)c2)cn1)C(C)(C)O
2. NC(N)=NC(=O)c1cnn(-c2cccc3ncccc23)c1C1CC1
3. CCCCCCCOc1cc2c(cc1/C(C)=C/c1ccc(C(=O)O)cc1)C(C)(C)CCS2(=O)=O

// result
["inactive", "inactive", "inactive"]
